compounds and their reported % Remaining of Initial (n = 1)
- ASSAY_PROTOCOL: Simulated intestinal fluid (SIF) stability in the presence of various enzymes
- Assay type: in vitro ADME
- TEST_PARAMETERS: SIF + Elastase, 30 min, 1 μM
Please state the figure in %; there is no need to write the unit.

Reference set, count: 3
| COMPOUND | REPORTED_MEASUREMENT |
| --- | --- |
| CCCCC/C=C\C/C=C\CCCCCCCC(=O)OCC(COC(=O)CCC(=O)OCCNC(=O)CCCCCCCCCCCCCCC)OC(=O)CCCCCCC/C=C\C/C=C\CCCCC (centres unmarked) | 16 |
| CC/C=C\C/C=C\C/C=C\C/C=C\C/C=C\CCCC(=O)OCCNC(=O)CCCCCCCCCCCCCCC | 70 |
| CCCCCCCCCCCCCCCC(=O)NCCOC(=O)CCC(=O)OC[C@H]1O[C@@](CO)(O[C@H]2O[C@H](CO)[C@@H](O)[C@H](O)[C@H]2O)[C@@H](O)[C@@H]1O | 14 |

Query block: Name the recorded % Remaining of Initial (n = 1) of the item CCCCCCCCCCCCCCCC(=O)NCCOC(=O)CCC(=O)OCC(COC(=O)CCCCCCC)OC(=O)CCCCCCC (centres unmarked) [Compound I-3, PEA-Succinate-Glycerol-Di-Caprylic] in your answer.
Result block: 61

Query block: Tell me % Remaining of Initial (n = 1) reported for CCCCCCCCCCCCCCCC(=O)NCCOC(=O)CCC
Result block: 42

Query block: Please look at this compound and report its % Remaining of Initial (n = 1): CCCCCCCCCCCCCCCC(=O)NCCOC(=O)CCC(=O)OCC(COC(=O)CCC)OC(=O)CCC (centres unmarked)
Result block: 50

Query block: // Input: CCCCC/C=C\C/C=C\CCCCCCCC(=O)OCCNC(=O)CCCCCCCCCCCCCCC . Output its % Remaining of Initial (n = 1) only.
Result block: 74

Query block: Quickly give me recorded % Remaining of Initial (n = 1) for CCCCCCCCCCCCCCCC(=O)NCCOC(=O)CCC(=O)OCC(O)CO (centres unmarked)
Result block: 22
